As shown below, each of these binders has a reported EC50 value.
Molecular target: T1, human GPC3 on cells (human, UniProt P51654 25-554)
T1 construct: whole, on cells; over-expressed on CHOK1 cells or endogenous on HEPG2, Hep3B and Huh-7 hepatocellular carcinoma cells; the cell line is named under assay; also called GPC3-CHOK1 cells; human GPC3 over-expressed CHOK1 cells
Test: FACS, HEPG2 cells
Protocol: To evaluate the antigen binding property, the humanized antibodies were analyzed for their binding to human GPC3 over-expressed CHOK1 cells, HEPG2 cells, Hep3B cells and Huh-7 cells by FACS. Briefly, GPC3-CHOK1 cells, HEPG2 cells, Hep3B cells and Huh-7 cells were firstly incubated with Fc blocking reagent at 4° C. for 15 mins. Cells were washed by FACS buffer and divided to each well with 4-fold serially diluted humanized antibodies starting at 10 μg/mL at 4° C. for 60 mins. […]

As a guide, the following entries are already answered.
binder: 52H5D3B8-6#-VH3+VL4 (antibody, V domains shown, humanized) VH: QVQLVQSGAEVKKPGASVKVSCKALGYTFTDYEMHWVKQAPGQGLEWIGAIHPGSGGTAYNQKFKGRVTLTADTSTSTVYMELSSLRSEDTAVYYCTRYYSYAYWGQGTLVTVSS VL: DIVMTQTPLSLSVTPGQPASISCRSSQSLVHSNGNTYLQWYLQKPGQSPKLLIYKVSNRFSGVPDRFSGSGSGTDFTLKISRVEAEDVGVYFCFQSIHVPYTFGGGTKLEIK
reported-property: EC50
reported: 0.0422 µg/mL
--
binder: 52H5D3B8-6#-VH4+VL1 (antibody, V domains shown, humanized) VH: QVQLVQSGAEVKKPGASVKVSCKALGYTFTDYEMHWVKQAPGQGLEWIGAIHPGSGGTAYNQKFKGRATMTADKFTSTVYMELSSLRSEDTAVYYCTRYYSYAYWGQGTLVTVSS VL: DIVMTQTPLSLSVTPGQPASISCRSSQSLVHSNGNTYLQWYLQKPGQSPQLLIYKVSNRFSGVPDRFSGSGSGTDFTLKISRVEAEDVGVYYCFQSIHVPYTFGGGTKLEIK
reported-property: EC50
reported: 0.04 µg/mL
--
binder: 52H5D3B8-6#-VH3+VL3 (antibody, V domains shown, humanized) VH: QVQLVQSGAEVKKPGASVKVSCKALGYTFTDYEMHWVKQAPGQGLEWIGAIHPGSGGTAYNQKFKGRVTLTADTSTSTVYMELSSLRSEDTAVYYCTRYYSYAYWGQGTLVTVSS VL: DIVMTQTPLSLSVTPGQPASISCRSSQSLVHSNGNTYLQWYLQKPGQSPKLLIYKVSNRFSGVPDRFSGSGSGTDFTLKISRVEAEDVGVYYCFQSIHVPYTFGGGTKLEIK
reported-property: EC50
reported: 0.0426 µg/mL
--
binder: 52H5D3B8-6#-VH4+VL2 (antibody, V domains shown, humanized) VH: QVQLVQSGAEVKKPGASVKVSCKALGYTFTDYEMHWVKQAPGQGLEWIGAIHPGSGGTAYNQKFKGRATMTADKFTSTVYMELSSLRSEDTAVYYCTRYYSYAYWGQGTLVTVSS VL: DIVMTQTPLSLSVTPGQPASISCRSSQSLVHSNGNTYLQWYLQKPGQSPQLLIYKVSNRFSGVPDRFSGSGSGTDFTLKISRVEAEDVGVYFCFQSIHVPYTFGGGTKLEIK
reported-property: EC50
reported: 0.0435 µg/mL
--
binder: 52H5D3B8-6#-VH4+VL4 (antibody, V domains shown, humanized) VH: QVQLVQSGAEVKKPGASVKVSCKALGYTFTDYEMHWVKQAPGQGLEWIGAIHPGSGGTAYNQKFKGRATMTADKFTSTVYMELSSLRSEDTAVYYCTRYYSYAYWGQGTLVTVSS VL: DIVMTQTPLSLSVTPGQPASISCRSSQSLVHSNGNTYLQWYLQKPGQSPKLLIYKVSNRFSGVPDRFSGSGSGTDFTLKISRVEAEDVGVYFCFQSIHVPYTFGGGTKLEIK
reported-property: EC50
reported: 0.0367 µg/mL

Sample 52H5D3B8-6# chimeric mAb (antibody, V domains shown, CDR3 mutant of the 52H5D3B8 chimeric mAb (human IgG1); also called 52H5D3B8-6#-VH+VL) VH: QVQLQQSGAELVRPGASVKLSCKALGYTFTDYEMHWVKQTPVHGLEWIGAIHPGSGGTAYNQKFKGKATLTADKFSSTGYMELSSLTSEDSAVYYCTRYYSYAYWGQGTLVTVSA VL: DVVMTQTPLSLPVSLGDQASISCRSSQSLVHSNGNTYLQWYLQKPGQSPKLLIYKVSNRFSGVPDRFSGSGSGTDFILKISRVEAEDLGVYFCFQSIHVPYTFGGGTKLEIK — what was its EC50?
0.0469 µg/mL

Sample 52H5D3B8-6#-VH4+VL3 (antibody, V domains shown, humanized) VH: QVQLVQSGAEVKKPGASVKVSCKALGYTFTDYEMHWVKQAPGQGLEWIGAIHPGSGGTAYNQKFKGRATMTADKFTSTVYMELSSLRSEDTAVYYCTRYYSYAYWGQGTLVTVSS VL: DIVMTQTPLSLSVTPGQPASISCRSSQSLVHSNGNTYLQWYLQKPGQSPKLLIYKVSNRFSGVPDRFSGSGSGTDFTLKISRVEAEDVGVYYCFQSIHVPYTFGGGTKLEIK — what was its EC50?
0.0391 µg/mL
